Provide the recorded log10(MGM (mean GI50 across cell lines)) for the entries that follow.
System: all human cancer cell lines successfully tested (approximately 55)
Experiment: COMPARE screening, mean graph midpoint (MGM)
Assay type: cell-based
Settings: Homo sapiens, average GI50 over all cell lines tested; values outside 10^-8 to 10^-4 molar taken as the limits; read-out: MGM (mean graph midpoint for growth inhibition)
Answers are given as log10 of MGM (mean GI50 across cell lines) in µM.

Please report log10(MGM (mean GI50 across cell lines)) for every entry that follows.
1. COc1ccc2c(c1OC)-c1ncc3c(OC)ccc(OC)c3c1C2.Cl [Compound 9da, Hydrochloride]
2. COc1cc2c(cc1OC)-c1ncc3cc4c(cc3c1C2)OCO4.Cl [Compound 9ba, hydrochloride]
3. COc1cc2c(cc1OC)-c1ncc3cc(OC)c(OC)c(OC)c3c1C2.Cl [Compound 9ca, Hydrochloride]

[1.27, 1.53, 1.28]

Please report log10(MGM (mean GI50 across cell lines)) for every entry that follows.
1. COc1ccc(OC)c2c3c(ncc12)-c1cc2c(cc1C3)OCO2.Cl [Compound 9db, Hydrochloride]
2. COc1cc2c(c(OC)c1OC)-c1ncc3cc4c(cc3c1C2)OCO4.Cl [Compound 9bc, Hydrochloride]
3. COc1ccc2c(c1OC)-c1ncc3cc(OC)c(OC)c(OC)c3c1C2.Cl [Compound 9ea, Hydrochloride]
4. COc1cc2c3c(ncc2c(OC)c1OC)-c1c(ccc2c1OCO2)C3.Cl [Compound 9cb, Hydrochloride]
5. COc1cc2cnc3c(c2c(OC)c1OC)Cc1ccc2c(c1-3)OCO2.Cl [Compound 9eb, Hydrochloride]

[1.39, 1.32, 1.12, 0.30, 1.42]

Please report log10(MGM (mean GI50 across cell lines)) for every entry that follows.
1. COc1cc2c(cc1OC)-c1ncc3cc(OC)c(OC)cc3c1C2.Cl [Compound 9aa, Hydrochloride]
2. COc1cc2c(c(OC)c1OC)-c1ncc3cc(OC)c(OC)c(OC)c3c1C2.Cl [Compound 9cc, Hydrochloride]
3. Cl.c1c2c(cc3c1OCO3)-c1ncc3cc4c(cc3c1C2)OCO4 [Compound 9bb, Hydrochloride]
4. COC1=C(OC)Cc2c3c(ncc2=C1)=c1cc2c(cc1=C3)OCO2.Cl [Compound 9ab, Hydrochloride]

[1.65, 1.38, -0.57, -1.30]

* * *

Tested on: MDA-MB-435
Assay: COMPARE screening (NCI), GI50 in MDA-MB-435
VALUE_TYPE: GI50
Include the unit right after the number.

{"COMPOUND": "COc1cc2c3c(n(C)c(=O)c2cc1OC)-c1cc2c(cc1C3=O)OCO2 [A, reference compound]", "GI50": "96 µM"}

Proceed to the following item.
What value of measured GI50 is listed for COc1cc2c[n+](CCCNC(C)=O)c3c(c2cc1OC)C(=O)c1cc2c(cc1-3)OCO2 ?
0.466 µM

* * *

Test system: OVCAR-3
Assay: COMPARE screening (NCI), GI50 in OVCAR-3
Conditions: Homo sapiens, OVCAR-3, read-out: Cytotoxicity GI50, ovarian OVCAR-3, ovarian; OVCAR-3; concentration corresponding to 50% growth inhibition
VALUE_TYPE: GI50 (µM)
Give bare numbers, in µM.

{"COMPOUND": "COc1cc2c(c(OC)c1OC)-c1ncc3cc4c(cc3c1C2)OCO4.Cl [Compound 9bc, Hydrochloride]", "GI50 / µM": 15.5}

Please report GI50 for every entry that follows.
1. COc1cc2c(cc1OC)-c1ncc3cc(OC)c(OC)c(OC)c3c1C2.Cl [Compound 9ca, Hydrochloride]
2. COc1cc2c(cc1OC)-c1ncc3cc4c(cc3c1C2)OCO4.Cl [Compound 9ba, hydrochloride]
3. COc1ccc2c(c1OC)-c1ncc3c(OC)ccc(OC)c3c1C2.Cl [Compound 9da, Hydrochloride]

[15.9, 61.2, 15.4]

meta.source: patent US7781445B2
